Biological target: Ten-M2 antigen (BiaCore analyte) (UniProt Q9NT68 399-2774)

Binder | kon / M⁻¹ s⁻¹
Ten-M2-199 (antibody, IgG2, V domains shown, Fully human mAb from IgG2 kappa XenoMouse (B cell clone); also called Mab199) VH: QVQLVQSGAEVKKPGASVKVSCKASGYTFTNYDINWLRQASGQGLEWMGWMNPDSGNTGYAQRFQGRVTMTRDTSISTAYMELSSLRSEDTAVYYCARYISSLHYYYYGMDVWGQGTTVTVSS VL: DIQMTQSPSSLSASVGDRVTITCRASQSINSYLNWYQQKPGKAPRLLIYAASNLQSGVPSRFSGSGSGTDFTLTISSLQPEDFSTYYCQQSHNTPLTFGGGTKVEIK | 23300
